# Target: T1, TNFR2-His (Sino Biological, 10417-H08H, NP_001057.1 Met1-Asp257, with multi-histidine tag expressed on … (human, UniProt P20333 23-257))
# T1 construct: range 1-257; Bought protein; also called recombinant human TNFR2 protein; TNFR2-His antigen; not shown: C-terminal multi-histidine tag
# T1 sequence (looked up): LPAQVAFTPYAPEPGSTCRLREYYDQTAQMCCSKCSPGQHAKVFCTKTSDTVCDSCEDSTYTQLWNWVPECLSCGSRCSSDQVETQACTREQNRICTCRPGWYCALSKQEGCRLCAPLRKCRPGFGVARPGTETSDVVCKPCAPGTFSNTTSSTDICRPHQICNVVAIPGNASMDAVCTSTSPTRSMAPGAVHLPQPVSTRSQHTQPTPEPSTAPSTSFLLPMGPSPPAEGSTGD
# Protocol Text: BLI, antibody captured on AHC probe, TNFR2 in solution
# Description: The GATOR (ProbeLife) detection instrument and AHC (Pall, 185064), Human antibody Capture probe were used to detect the dissociation constant (Kd) of human-mouse chimeric TNFR2 monoclonal antibody. The human-mouse chimeric TNFR2 monoclonal antibodies were diluted to 50 nM in binding buffer (Q buffer [PBS (10 mM PH7.4)+0.02% Tween 20+0.2% BSA). The recombinant human TNFR2 protein was diluted in Q buffer with a 2-fold gradient starting from the highest concentration of 100 nM. […]
Listing: pKd of selected binders
Would you please state pKd, meaning minus log10 of the concentration in mol/L, as a bare number?

Solved cases (2 shown):
{"Binder": "human-mouse chimeric TNFR2 monoclonal antibody 7F2-hFc (antibody, V domains shown, Mouse V regions of clone 7F2 with human constant regions) VH: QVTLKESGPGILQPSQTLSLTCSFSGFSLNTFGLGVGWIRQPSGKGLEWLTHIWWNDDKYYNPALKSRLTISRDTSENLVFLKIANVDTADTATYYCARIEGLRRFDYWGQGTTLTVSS VL: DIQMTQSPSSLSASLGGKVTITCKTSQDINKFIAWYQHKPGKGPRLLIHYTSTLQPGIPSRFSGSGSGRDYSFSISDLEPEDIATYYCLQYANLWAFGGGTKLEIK", "pKd": 7.60}
{"Binder": "human-mouse chimeric TNFR2 monoclonal antibody 33C12-hFc (antibody, V domains shown, Mouse V regions of clone 33C12 with human constant regions; also called human-mouse chimeric 33C12 antibody) VH: DVKLVESGGGLVKPGGSLKLSCAASGFTFSDYTMSWVRQTPEKRLEWVATISTGGSYTYYPDSVKGRFTISRDNAKNTLYLQMSSLKSEDTAMYYCTRDGGYDGDYFDYWGQGTTLTVSS VL: ENVLTQSPAIMSASPGEKVTMTCRASSSVSSSYLHWYQQKSGASPKLWIYRTSNLASGVPARFSGSGSGTSYSLTISSVEAEDAATYYCQQYSGYPLTFGAGTRLELK", "pKd": 7.66}

Task: Requested field: pKd. Item: human-mouse chimeric TNFR2 monoclonal antibody 12E12-hFc (antibody, V domains shown, Mouse V regions of clone 12E12 with human constant regions; also called human-mouse chimeric 12E12 antibody) VH: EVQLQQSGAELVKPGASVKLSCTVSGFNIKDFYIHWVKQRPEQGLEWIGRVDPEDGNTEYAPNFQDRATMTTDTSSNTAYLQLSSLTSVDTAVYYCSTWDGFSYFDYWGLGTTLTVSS VL: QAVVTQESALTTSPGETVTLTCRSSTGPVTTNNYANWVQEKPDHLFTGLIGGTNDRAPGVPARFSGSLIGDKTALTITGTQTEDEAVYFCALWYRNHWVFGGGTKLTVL
Output: 8.41
